Form: system (Human KLK1 (Homo sapiens, UniProt P06870)), quantity (pIC50), values below.
The meaning of pIC50 here: minus log10 of the concentration in molar units.

As a guide, the following entries are already answered.
>>> obs_value("Nc1ccc(CNC(=O)[C@H](Cc2cccc3ccccc23)NC(=O)c2cc3cc(F)ccc3[nH]2)cn1 [Example 301]")
7.96
>>> obs_value("Nc1ccc(CNC(=O)[C@H](Cc2ccc(F)c(F)c2)NC(=O)[C@H]2CCCN2Cc2ccccc2)cn1 [Example 140]")
8.37
>>> obs_value("CNCC(=O)N[C@@H](C(=O)NCc1ccc(N)nc1)C(C1CCCCC1)C1CCCCC1 [Example 221]")
7.30
>>> obs_value("CCN(CC)[C@@H](C)C(=O)N[C@@H](Cc1cccc(Cl)c1)C(=O)NCc1ccc(N)nc1 [Example 410]")
8.59
>>> obs_value("CCN(C)C(C)C(=O)NC(Cc1cccc(Cl)c1)C(=O)NCc1ccc(N)nc1 (centres unmarked) [Example 408]")
8.32
>>> obs_value("CN1CCC[C@@H]1C(=O)N[C@@H](CC1CCCC2CCCCC21)C(=O)NCc1ccc(N)nc1 (some centres unmarked) [Example 396]")
8.85
>>> obs_value("CN1CCC[C@H]1C(=O)N[C@@H](CC1CCCCC1)C(=O)NCc1ccc(N)nc1 [Example 382]")
7.31

# context switch: different compound, same pIC50
Ask | Quick check: pIC50 on Human KLK1 (Homo sapiens, UniProt P06870), item Cc1cc(C)c(C(=O)N[C@@H](Cc2cccc3ccccc23)C(=O)NCc2ccc(N)nc2)[nH]1 [Example 231] ?
Reply | 8.51

====

Form: system (UniProt P06870), quantity (pIC50), values below.
The meaning of pIC50 here: minus log10 of the concentration in molar units.

Ask | Query (compound): CC(C(=O)N[C@@H](Cc1cccc(C(F)(F)F)c1)C(=O)NCc1ccc(N)nc1)N1CCCCC1 (some centres unmarked) ; field requested: pIC50
Reply | 7.79

Ask | Query (compound): CCC(C)[C@@H](N)C(=O)N[C@@H](CC1CCCC2CCCCC21)C(=O)NCc1ccc(N)nc1C (some centres unmarked) ; field requested: pIC50
Reply | 9.15

Ask | Query (compound): CCN(CC)CC(=O)N[C@@H](Cc1ccc(F)cc1)C(=O)NCc1ccc(N)nc1 ; field requested: pIC50
Reply | 7.86

Ask | Query (compound): CCCN(C)[C@@H](C)C(=O)N[C@@H](CC1CCCCC1)C(=O)NCc1ccc(N)nc1 ; field requested: pIC50
Reply | 7.34

Ask | Query (compound): CCN(CC)[C@@H](C)C(=O)N[C@@H](Cc1cccc(C)c1)C(=O)NCc1ccc(N)nc1 ; field requested: pIC50
Reply | 8.28

Ask | Query (compound): Cc1cc[nH]c1C(=O)N[C@@H](Cc1cccc(C(F)(F)F)c1)C(=O)NCc1ccc(N)nc1 ; field requested: pIC50
Reply | 8.48

Ask | Query (compound): CC(C)N(C)[C@@H](C)C(=O)N[C@@H](Cc1ccc(Cl)c(Cl)c1)C(=O)NCc1ccc(N)nc1 ; field requested: pIC50
Reply | 9.80

Ask | Query (compound): CCCN(CCC)[C@@H](C)C(=O)N[C@@H](CC1CCCCC1)C(=O)NCc1ccc(N)nc1 ; field requested: pIC50
Reply | 6.97

====

assay system: Human KLK1 (Homo sapiens)
Construct: purchased Callbiochem (Calbiochem)
Sequence (P06870 25-262): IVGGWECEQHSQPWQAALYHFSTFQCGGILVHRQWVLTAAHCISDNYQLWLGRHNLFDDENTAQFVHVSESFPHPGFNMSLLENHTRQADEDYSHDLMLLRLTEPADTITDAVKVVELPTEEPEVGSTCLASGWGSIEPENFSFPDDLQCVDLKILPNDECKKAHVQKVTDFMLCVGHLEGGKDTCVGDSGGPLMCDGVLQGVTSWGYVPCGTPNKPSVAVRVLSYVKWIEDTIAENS
measurement description: Determination of the IC50 for KLK1 (fluorogenic substrate H-DVal-Leu-Arg-AFC)
Assay type: biochemical
condition description: 37° C.
quantity measured: IC50 (µM)
Please give a number only; it is taken to be in µM.

As a guide, the following entries are already answered.
>>> obs_value("Nc1ccc(CNC(=O)[C@H](Cc2ccc(Cl)c(Cl)c2)NC(=O)[C@H](N)Cc2ccccc2)cn1")
0.00029
>>> obs_value("CCC(C)[C@@H](N)C(=O)N[C@@H](CC1CCCC2CCCCC21)C(=O)NCc1c(C)cc(N)nc1C (stereo partly drawn)")
0.0321
>>> obs_value("CCN(C)[C@@H](CO)C(=O)N[C@@H](CC1CCCCC1)C(=O)NCc1ccc(N)nc1")
0.17
>>> obs_value("Cc1cccc(C[C@H](NC(=O)[C@H](C)N(C)C(C)C)C(=O)NCc2ccc(N)nc2)c1")
0.00077
>>> obs_value("Cc1nc(N)ccc1CNC(=O)[C@H](Cc1ccc(Cl)c(Cl)c1)NC(=O)[C@H]1CC(F)(F)CN1")
0.0604
>>> obs_value("Cc1cc(C)c(C(=O)N[C@@H](Cc2cccc(C(F)(F)F)c2)C(=O)NCc2ccc(N)nc2)[nH]1")
0.0015

Ask | Query (compound): CC(C)N(C)[C@@H](C)C(=O)N[C@@H](C(=O)NCc1ccc(N)nc1)C(C1CCCCC1)C1CCCCC1 ; field requested: IC50
Reply | 0.1

Ask | Query (compound): CNC(C)(C)C(=O)N[C@@H](Cc1ccc(F)c(F)c1)C(=O)NCc1ccc(N)nc1 ; field requested: IC50
Reply | 0.0155

Ask | Query (compound): CCC(C)[C@@H](C(=O)N[C@@H](Cc1ccc(F)c(F)c1)C(=O)NCc1ccc(N)nc1)N(C)C(C)C (stereo partly drawn) ; field requested: IC50
Reply | 0.0078

Ask | Query (compound): CN(CC(=O)N[C@@H](Cc1ccc(F)c(F)c1)C(=O)NCc1ccc(N)nc1)Cc1ccc(Cl)cc1 ; field requested: IC50
Reply | 0.0565

Ask | Query (compound): Nc1ccc(CNC(=O)[C@H](Cc2cccc(C(F)(F)F)c2)NC(=O)c2ccc(C(=O)O)[nH]2)cn1 ; field requested: IC50
Reply | 0.147

Ask | Query (compound): Cc1nc(N)ccc1CNC(=O)[C@H](Cc1cccc2ccccc12)NC(=O)c1cc2ccccc2[nH]1 ; field requested: IC50
Reply | 0.24

Ask | Query (compound): CN1CCC[C@@H]1C(=O)N[C@@H](Cc1ccccc1Cl)C(=O)NCc1ccc(N)nc1 ; field requested: IC50
Reply | 0.0217

Ask | Query (compound): Cc1nc(N)ccc1CNC(=O)[C@@H](Cc1ccc(Cl)c(Cl)c1)NC(=O)[C@H]1CSCN1 ; field requested: IC50
Reply | 0.0333

Ask | Query (compound): CC(C(=O)N[C@@H](Cc1cc(F)cc(F)c1)C(=O)NCc1ccc(N)nc1)N1CCCCC1 (stereo partly drawn) ; field requested: IC50
Reply | 0.0149

====

assay system: plasmin (Homo sapiens, UniProt P00747)
Sequence (P00747 581-810 limits assumed): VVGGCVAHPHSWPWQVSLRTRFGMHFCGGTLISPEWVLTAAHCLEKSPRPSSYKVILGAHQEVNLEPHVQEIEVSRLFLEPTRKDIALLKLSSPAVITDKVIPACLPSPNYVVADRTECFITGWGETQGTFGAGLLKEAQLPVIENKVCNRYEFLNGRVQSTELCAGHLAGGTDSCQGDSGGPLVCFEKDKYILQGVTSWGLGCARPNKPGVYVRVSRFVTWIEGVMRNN
Sequence (P00747 97-580 partner limits assumed): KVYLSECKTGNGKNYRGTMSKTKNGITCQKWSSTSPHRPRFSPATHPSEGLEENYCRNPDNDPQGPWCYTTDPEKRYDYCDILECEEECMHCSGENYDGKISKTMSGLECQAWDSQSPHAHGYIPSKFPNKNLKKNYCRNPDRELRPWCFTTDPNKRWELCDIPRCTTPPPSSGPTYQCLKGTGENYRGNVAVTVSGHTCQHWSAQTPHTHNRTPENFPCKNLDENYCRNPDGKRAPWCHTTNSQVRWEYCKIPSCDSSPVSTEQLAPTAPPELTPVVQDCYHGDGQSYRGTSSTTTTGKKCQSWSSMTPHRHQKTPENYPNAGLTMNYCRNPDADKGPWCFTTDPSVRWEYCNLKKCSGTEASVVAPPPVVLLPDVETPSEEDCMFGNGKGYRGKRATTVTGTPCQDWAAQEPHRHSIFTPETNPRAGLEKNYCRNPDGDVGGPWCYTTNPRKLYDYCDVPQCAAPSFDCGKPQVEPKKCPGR
pIC50: −log10 of the molar value.
quantity measured: pIC50

As a guide, the following entries are already answered.
>>> obs_value("CC(C)N(CC(=O)N[C@@H](Cc1ccc(F)c(F)c1)C(=O)NCc1ccc(N)nc1)C(C)C")
"< 5.00"
>>> obs_value("CCC(C)[C@@H](N)C(=O)N[C@@H](Cc1ccccc1C(F)(F)F)C(=O)NCc1ccc(N)nc1 (some centres unmarked)")
"< 5.00"
>>> obs_value("CN1CCC[C@@H]1C(=O)N[C@@H](Cc1ccc(Cl)c(Cl)c1)C(=O)NCc1ccc(N)nc1")
"< 5.00"
>>> obs_value("CCC(C)[C@H](N)C(=O)N[C@@H](C(=O)NCc1ccc(N)nc1)C(C1CCCCC1)C1CCCCC1 (some centres unmarked)")
"< 5.00"
>>> obs_value("CCC(C)[C@@H](N)C(=O)N[C@@H](CC1CCCCC1)C(=O)NCc1ccc(N)nc1 (some centres unmarked)")
"< 5.00"
>>> obs_value("Cc1cc(C)c(C(=O)N[C@@H](Cc2cccc(Cl)c2)C(=O)NCc2ccc(N)nc2)[nH]1")
"< 5.00"

Ask | Quick check: pIC50 on plasmin (Homo sapiens, UniProt P00747), item CCC(C)[C@@H](N)C(=O)N[C@@H](Cc1ccccc1)C(=O)NCc1ccc(N)nc1 (some centres unmarked) ?
Reply | < 5.00

Ask | Quick check: pIC50 on plasmin (Homo sapiens, UniProt P00747), item CCN(CC)[C@@H](C)C(=O)N[C@@H](Cc1ccc(F)c(F)c1)C(=O)NCc1ccc(N)nc1 ?
Reply | < 5.00

====

assay system: Human KLK1 (Homo sapiens)
Lab note: compare IC50 with 20 nM, writing True if less and False if equal or more.

Worked set:
>>> classification("Cc1cccc(C[C@H](NC(=O)c2cc3ccccc3[nH]2)C(=O)NCc2ccc(N)nc2)c1")
"True"
>>> classification("Nc1ccc(CNC(=O)[C@H](Cc2ccc(F)c(F)c2)NC(=O)CN2CCOCC2)cn1")
"True"
>>> classification("Cc1nc(N)ccc1CNC(=O)[C@H](Cc1ccc(Cl)c(Cl)c1)NC(=O)[C@H](N)C1CCCCC1")
"False"
>>> classification("CCC(C)[C@@H](NC)C(=O)N[C@@H](CC1CCCCC1)C(=O)NCc1ccc(N)nc1 (some centres unmarked)")
"False"

Now let's try a different one.
Ask | Does this compound meet the criterion IC50 < 20 nM? CC(C)CN1CCC[C@@H]1C(=O)N[C@@H](Cc1ccc(F)c(F)c1)C(=O)NCc1ccc(N)nc1
Reply | True
